Biological target: CYP2C8 (Homo sapiens, UniProt P10632)
Construct: Pooled human microsomes were obtained from Sekisui XenoTech, KS; tissue Sekisui XenoTech, KS; host or cells: pooled human liver microsomes
Sequence (P10632 whole entry): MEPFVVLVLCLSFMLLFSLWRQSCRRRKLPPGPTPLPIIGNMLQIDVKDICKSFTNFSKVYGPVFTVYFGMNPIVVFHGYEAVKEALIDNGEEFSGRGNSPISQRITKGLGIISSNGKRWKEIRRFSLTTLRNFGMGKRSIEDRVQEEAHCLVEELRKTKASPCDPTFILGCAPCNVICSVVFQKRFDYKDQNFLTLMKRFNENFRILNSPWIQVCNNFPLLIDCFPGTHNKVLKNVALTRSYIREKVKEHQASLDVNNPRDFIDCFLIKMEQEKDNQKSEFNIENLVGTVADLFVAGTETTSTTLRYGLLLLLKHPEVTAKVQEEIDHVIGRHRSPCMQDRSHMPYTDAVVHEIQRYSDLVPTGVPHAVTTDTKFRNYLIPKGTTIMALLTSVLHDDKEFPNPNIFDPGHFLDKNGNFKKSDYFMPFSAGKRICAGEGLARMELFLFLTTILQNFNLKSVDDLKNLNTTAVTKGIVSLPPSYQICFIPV
Test: CYP Inhibition Assay (CYP2C8, human liver microsomes, paclitaxel substrate)
Assay type: in vitro ADME
Conditions: pH 7.4; pooled human liver microsomes 0.1 mg/mL, probe substrate paclitaxel
Items are presented alongside their recorded inhibition at 5 min.
measured.attribute: inhibition at 5 min

{"item.smiles": "CC(C)N([C@H]1CCC2=Cc3c(cnn3-c3ccc(F)cc3)C[C@]2(C(=O)c2ncc(C(F)(F)F)s2)C1)S(=O)(=O)c1cn(C)cn1", "experimental.system": "CYP2C8 (Homo sapiens, UniProt P10632)", "measured.attribute": "inhibition at 5 min", "assay.value": "≤ 25%"}
{"item.smiles": "Cn1cc(S(=O)(=O)N(CC(F)(F)F)[C@H]2CCC3=Cc4c(cnn4-c4ccc(F)cc4)C[C@]3(C(=O)c3cc(Cl)ccn3)C2)cn1", "experimental.system": "CYP2C8 (Homo sapiens, UniProt P10632)", "measured.attribute": "inhibition at 5 min", "assay.value": "25 to 50%"}
{"item.smiles": "Cn1ccnc1S(=O)(=O)N(C1CC1)[C@H]1CCC2=Cc3c(cnn3-c3ccc(F)cc3)C[C@]2(C(=O)c2cc(C(F)(F)F)ccn2)C1", "experimental.system": "CYP2C8 (Homo sapiens, UniProt P10632)", "measured.attribute": "inhibition at 5 min", "assay.value": "50 to 75%"}
{"item.smiles": "Cn1cc(S(=O)(=O)N(C2CC2)[C@H]2CCC3=Cc4c(cnn4-c4ccc(F)cc4)C[C@]3(C(=O)c3cc(F)ccn3)C2)nn1", "experimental.system": "CYP2C8 (Homo sapiens, UniProt P10632)", "measured.attribute": "inhibition at 5 min", "assay.value": "50 to 75%"}
{"item.smiles": "Cn1cnc(S(=O)(=O)N(C2CC(F)(F)C2)[C@H]2CCC3=Cc4c(cnn4-c4ccc(F)cc4)C[C@]3(C(=O)c3cc(C(F)(F)F)ccn3)C2)n1", "experimental.system": "CYP2C8 (Homo sapiens, UniProt P10632)", "measured.attribute": "inhibition at 5 min", "assay.value": "25 to 50%"}
{"item.smiles": "Cn1ccc(S(=O)(=O)N(CC2(O)CC2)[C@H]2CCC3=Cc4c(cnn4-c4ccc(F)cc4)C[C@]3(C(=O)c3cc(F)ccn3)C2)n1", "experimental.system": "CYP2C8 (Homo sapiens, UniProt P10632)", "measured.attribute": "inhibition at 5 min", "assay.value": "50 to 75%"}
{"item.smiles": "CC(C)N([C@H]1CCC2=Cc3c(cnn3-c3ccc(F)cc3)C[C@]2(C(=O)c2cc(C(F)(F)F)ccn2)C1)S(=O)(=O)c1cn(C)nn1", "experimental.system": "CYP2C8 (Homo sapiens, UniProt P10632)", "measured.attribute": "inhibition at 5 min", "assay.value": "75 to 90%"}
{"item.smiles": "Cn1cnc(S(=O)(=O)N(C2CC(F)(F)C2)[C@H]2CCC3=Cc4c(cnn4-c4ccc(F)cc4)C[C@]3(C(=O)c3ncc(C(F)(F)F)s3)C2)c1", "experimental.system": "CYP2C8 (Homo sapiens, UniProt P10632)", "measured.attribute": "inhibition at 5 min", "assay.value": "≤ 25%"}
{"item.smiles": "O=C(c1cc(C(F)(F)F)ccn1)[C@]12Cc3cnn(-c4ccc(F)cc4)c3C=C1CC[C@H](N(CC1CC1)S(=O)(=O)c1ccc(Cl)nc1)C2", "experimental.system": "CYP2C8 (Homo sapiens, UniProt P10632)", "measured.attribute": "inhibition at 5 min", "assay.value": "≤ 25%"}
{"item.smiles": "CC(C)N([C@H]1CCC2=Cc3c(cnn3-c3ccc(F)cc3)C[C@]2(C(=O)c2cc(C(F)(F)F)ccn2)C1)S(=O)(=O)c1ccn(C)n1", "experimental.system": "CYP2C8 (Homo sapiens, UniProt P10632)", "measured.attribute": "inhibition at 5 min", "assay.value": "50 to 75%"}
{"item.smiles": "CC(C)N([C@H]1CCC2=Cc3c(cnn3-c3ccc(F)cc3)C[C@]2(C(=O)c2cc(C(F)(F)F)ccn2)C1)S(=O)(=O)c1ncn(C)n1", "experimental.system": "CYP2C8 (Homo sapiens, UniProt P10632)", "measured.attribute": "inhibition at 5 min", "assay.value": "25 to 50%"}
{"item.smiles": "C[C@]1(O)C[C@@H](N([C@H]2CCC3=Cc4c(cnn4-c4ccc(F)cc4)C[C@]3(C(=O)c3cc(Cl)ccn3)C2)S(=O)(=O)c2ccc(F)cc2)C1", "experimental.system": "CYP2C8 (Homo sapiens, UniProt P10632)", "measured.attribute": "inhibition at 5 min", "assay.value": "25 to 50%"}

====

Target: CYP2C8 (Homo sapiens, UniProt P10632)
Construct: Pooled human microsomes were obtained from Sekisui XenoTech, KS; tissue Sekisui XenoTech, KS; host or cells: pooled human liver microsomes
Assay: CYP Inhibition Assay (CYP2C8, human liver microsomes, paclitaxel substrate)
Assay type: in vitro ADME
Settings: pH 7.4; pooled human liver microsomes 0.1 mg/mL, probe substrate paclitaxel
Listing: inhibition at 5 min of selected molecules

{"item.smiles": "Cn1cc(S(=O)(=O)N(CC(F)F)[C@H]2CCC3=Cc4c(cnn4-c4ccc(F)cc4)C[C@]3(C(=O)c3cc(F)ccn3)C2)nn1", "inhibition at 5 min": "50 to 75%"}
{"item.smiles": "Cn1cnc(S(=O)(=O)N(C2CC(F)(F)C2)[C@H]2CCC3=Cc4c(cnn4-c4ccc(F)cc4)C[C@]3(C(=O)c3cc(Cl)ccn3)C2)c1", "inhibition at 5 min": "25 to 50%"}
{"item.smiles": "Cn1cnc(S(=O)(=O)N(CC(F)(F)F)[C@H]2CCC3=Cc4c(cnn4-c4ccc(F)cc4)C[C@]3(C(=O)c3ncc(C(F)(F)F)s3)C2)c1", "inhibition at 5 min": "≤ 25%"}
{"item.smiles": "Cn1ccc(S(=O)(=O)N(CC2(O)CC2)[C@H]2CCC3=Cc4c(cnn4-c4ccc(F)cc4)C[C@]3(C(=O)c3cc(Cl)ccn3)C2)n1", "inhibition at 5 min": "50 to 75%"}
{"item.smiles": "Cn1cnc(S(=O)(=O)N(C2CC2)[C@H]2CCC3=Cc4c(cnn4-c4ccc(F)cc4)C[C@]3(C(=O)c3ncc(C(F)(F)F)s3)C2)c1", "inhibition at 5 min": "≤ 25%"}
{"item.smiles": "Cn1ccc(S(=O)(=O)N(C2CC(F)(F)C2)[C@H]2CCC3=Cc4c(cnn4-c4ccc(F)cc4)C[C@]3(C(=O)c3ncc(C(F)(F)F)s3)C2)n1", "inhibition at 5 min": "≤ 25%"}
{"item.smiles": "Cn1ccc(S(=O)(=O)[C@@]2(F)CCC3=Cc4c(cnn4-c4ccc(F)cc4)C[C@]3(C(=O)c3cc(C(F)(F)F)ccn3)C2)n1", "inhibition at 5 min": "≤ 25%"}
{"item.smiles": "Cn1ccc(S(=O)(=O)N(CC2CC2)[C@H]2CCC3=Cc4c(cnn4-c4ccc(F)cc4)C[C@]3(C(=O)c3cc(C(F)F)ccn3)C2)n1", "inhibition at 5 min": "50 to 75%"}
{"item.smiles": "Cn1ccc(S(=O)(=O)N(C2CC(F)(F)C2)[C@H]2CCC3=Cc4c(cnn4-c4ccc(F)cc4)C[C@]3(C(=O)c3cc(Cl)ccn3)C2)n1", "inhibition at 5 min": "25 to 50%"}
{"item.smiles": "CC(C)N([C@H]1CCC2=Cc3c(cnn3-c3ccc(F)cc3)C[C@]2(C(=O)c2ncc(C(F)(F)F)s2)C1)S(=O)(=O)c1ccc(Cl)nc1", "inhibition at 5 min": "≤ 25%"}
{"item.smiles": "Cn1cnc(S(=O)(=O)N(C2CC(F)(F)C2)[C@H]2CCC3=Cc4c(cnn4-c4ccc(F)cc4)C[C@]3(C(=O)c3cc(Cl)ccn3)C2)n1", "inhibition at 5 min": "≤ 25%"}
{"item.smiles": "O=C(c1cc(C(F)(F)F)ccn1)[C@]12Cc3cnn(-c4ccc(F)cc4)c3C=C1CC[C@H](N(C1CC1)S(=O)(=O)c1ccc(Cl)nc1)C2", "inhibition at 5 min": "25 to 50%"}

====

List of IC50 values.
Target: GR (Homo sapiens)
Construct: expressed in transfected cells; host or cells: CHO-K1
Sequence (P04150 whole entry): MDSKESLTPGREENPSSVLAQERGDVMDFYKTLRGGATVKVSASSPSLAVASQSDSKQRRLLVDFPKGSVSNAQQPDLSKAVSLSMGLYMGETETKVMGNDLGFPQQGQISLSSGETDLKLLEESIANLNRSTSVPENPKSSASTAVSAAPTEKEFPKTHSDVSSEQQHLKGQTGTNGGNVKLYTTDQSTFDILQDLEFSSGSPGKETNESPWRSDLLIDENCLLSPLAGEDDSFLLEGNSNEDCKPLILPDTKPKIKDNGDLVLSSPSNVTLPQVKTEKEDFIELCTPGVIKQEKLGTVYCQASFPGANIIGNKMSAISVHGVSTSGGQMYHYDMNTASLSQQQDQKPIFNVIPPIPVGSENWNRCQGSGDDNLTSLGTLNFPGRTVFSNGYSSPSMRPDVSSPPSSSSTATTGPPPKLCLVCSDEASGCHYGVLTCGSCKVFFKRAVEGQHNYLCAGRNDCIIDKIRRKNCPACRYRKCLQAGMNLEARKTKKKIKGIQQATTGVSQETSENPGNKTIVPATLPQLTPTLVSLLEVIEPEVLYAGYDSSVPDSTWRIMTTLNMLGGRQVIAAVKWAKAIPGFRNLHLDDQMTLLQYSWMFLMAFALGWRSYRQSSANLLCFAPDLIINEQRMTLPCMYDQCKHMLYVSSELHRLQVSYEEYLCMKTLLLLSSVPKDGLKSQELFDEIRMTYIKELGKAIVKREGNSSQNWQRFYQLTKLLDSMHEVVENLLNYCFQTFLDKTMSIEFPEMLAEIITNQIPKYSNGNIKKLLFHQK
Test: In Vitro GR Luciferase Reporter Assay (antagonist mode, CHO-K1-GR-MMTV-Luc reporter cells)
Type: cell-based
Conditions: antagonist mode, 10 nM Dexamethasone

{"compound": "CC(C)N([C@H]1CCC2=Cc3c(cnn3-c3ccc(F)cc3)C[C@]2(C(=O)c2ncc(C(F)(F)F)s2)C1)S(=O)(=O)c1ccc(Cl)nc1 [Example 283]", "IC50": "≤ 100 nM"}
{"compound": "CCN([C@H]1CCC2=Cc3c(cnn3-c3ccc(F)cc3)C[C@]2(C(=O)c2ncc(C(F)(F)F)s2)C1)S(=O)(=O)c1cnn(C)c1 [Example 153]", "IC50": "≤ 100 nM"}
{"compound": "Cn1ccc(S(=O)(=O)N(CC2(O)CC2)[C@H]2CCC3=Cc4c(cnn4-c4ccc(F)cc4)C[C@]3(C(=O)c3cc(F)ccn3)C2)n1 [Example 255]", "IC50": "≤ 100 nM"}
{"compound": "CC(C)N([C@H]1CCC2=Cc3c(cnn3-c3ccc(F)cc3)C[C@]2(C(=O)c2ncc(C(F)(F)F)s2)C1)S(=O)(=O)c1ccn(C)n1 [Example 182]", "IC50": "≤ 100 nM"}
{"compound": "CN([C@H]1CCC2=Cc3c(cnn3-c3ccc(F)cc3)C[C@]2(C(=O)c2ccc(C3CC3)cn2)C1)S(=O)(=O)c1ccc(Cl)cc1 [Example 146]", "IC50": "≤ 100 nM"}
{"compound": "O=C(c1ccc(F)cc1)N(C1CC1)[C@H]1CCC2=Cc3c(cnn3-c3ccc(F)cc3)C[C@]2(C(=O)c2ncc(C(F)(F)F)s2)C1 [Example 291]", "IC50": "100 to 1000 nM"}
